meta.source: ChEMBL document CHEMBL4819021

system: BT-549; assay: Cytotoxicity against human BT-549 cells assessed as reduction in cell viability at 40 uM measured after 72 hrs by MTS assay; type: functional, cell-based
Active and inactive are the calls of the source. No cut-off for these calls is given here.
measured_property: Activity

# annotated cases, reported Activity shown
CC1=C[C@H](c2cc3ccc(=O)oc3cc2O[C@@H]2O[C@H](COC3OC[C@@H](O)[C@H](O)[C@H]3O)[C@@H](O)[C@H](O)[C@H]2O)[C@](C)(/C=C/c2cc3ccc(=O)oc3cc2O[C@@H]2O[C@H](COC3OC[C@@H](O)[C@H](O)[C@H]3O)[C@@H](O)[C@H](O)[C@H]2O)CC1 (stereo partly drawn) | inactive
CC1=C[C@@H](c2cc3ccc(=O)oc3cc2O[C@@H]2O[C@H](COC3OC[C@@H](O)[C@H](O)[C@H]3O)[C@@H](O)[C@H](O)[C@H]2O)[C@@](C)(/C=C/c2cc3ccc(=O)oc3cc2O[C@@H]2O[C@H](CO)[C@@H](O)[C@H](O)[C@H]2O)CC1 (stereo partly drawn) | inactive
CC1=C[C@@H](c2cc3ccc(=O)oc3cc2O[C@@H]2O[C@H](COC3OC[C@@H](O)[C@H](O)[C@H]3O)[C@@H](O)[C@H](O)[C@H]2O)[C@@](C)(/C=C/c2cc3ccc(=O)oc3cc2O[C@@H]2O[C@H](COC3OC[C@@H](O)[C@H](O)[C@H]3O)[C@@H](O)[C@H](O)[C@H]2O)CC1 (stereo partly drawn) | inactive
CC1=C[C@@H](c2cc3ccc(=O)oc3cc2O[C@@H]2O[C@H](CO)[C@@H](O)[C@H](O)[C@H]2O)[C@@](C)(/C=C/c2cc3ccc(=O)oc3cc2O[C@@H]2O[C@H](CO[C@@H]3OC[C@](O)(CO)[C@H]3O)[C@@H](O)[C@H](O)[C@H]2O)CC1 | inactive

Here are 5 compounds. What values of Activity were reported for them?
1. CC1=C[C@H](c2cc3ccc(=O)oc3cc2O[C@@H]2O[C@H](COC3OC[C@@H](O)[C@H](O)[C@H]3O)[C@@H](O)[C@H](O)[C@H]2O)[C@](C)(/C=C/c2cc3ccc(=O)oc3cc2O[C@@H]2O[C@H](CO)[C@@H](O)[C@H](O)[C@H]2O)CC1 (stereo partly drawn)
2. CC1=C[C@H](c2cc3ccc(=O)oc3cc2O[C@@H]2O[C@H](CO)[C@@H](O)[C@H](O)[C@H]2O)[C@](C)(/C=C/c2cc3ccc(=O)oc3cc2O[C@@H]2O[C@H](COC3OC[C@@H](O)[C@H](O)[C@H]3O)[C@@H](O)[C@H](O)[C@H]2O)CC1 (stereo partly drawn)
3. CC1=C[C@@H](c2cc3ccc(=O)oc3cc2O[C@@H]2O[C@H](CO)[C@@H](O)[C@H](O)[C@H]2O)[C@@](C)(/C=C/c2cc3ccc(=O)oc3cc2O[C@@H]2O[C@H](CO)[C@@H](O)[C@H](O)[C@H]2O)CC1
4. CC1=C[C@@H](c2cc3ccc(=O)oc3cc2O[C@@H]2O[C@H](CO)[C@@H](O)[C@H](O)[C@H]2O)[C@@](C)(/C=C/c2cc3ccc(=O)oc3cc2O[C@@H]2O[C@H](COC3OC[C@@H](O)[C@H](O)[C@H]3O)[C@@H](O)[C@H](O)[C@H]2O)CC1 (stereo partly drawn)
5. CC1=C[C@@H](c2cc3ccc(=O)oc3cc2O[C@@H]2O[C@H](CO[C@@H]3OC[C@](O)(CO)[C@H]3O)[C@@H](O)[C@H](O)[C@H]2O)[C@@](C)(/C=C/c2cc3ccc(=O)oc3cc2O[C@@H]2O[C@H](CO)[C@@H](O)[C@H](O)[C@H]2O)CC1

inactive
inactive
inactive
inactive
inactive
